Test system: HCT-116
test.description: Concentration required to inhibit the colon HCT116 cell growth by 50%,P53 status of cell line used was wild-type.
Type: functional, cell-based
setup.conditions: Homo sapiens
pIC50: −log10 of the molar value.

# mol, tested.system, pIC50
rows = [
    ("CN(C)c1ccc(C(=O)NCCCCCCC(=O)NO)cc1", "HCT-116", 6.70),
]

----------
tested.system: Histone deacetylase
test.description: Induction of p21 using Histone deacetylase inhibitors
Type: protein assay, Homo sapiens
readout.label: AC50 (µM)

# mol, readout.unit, relation.qualifier, obs.value
rows = [
    ("CN(CCCCCC(=O)NO)C(=O)c1ccc(N(C)C)cc1", "µM", ">", 10),
    ("CONC(=O)CCCCCNC(=O)c1ccccc1", "µM", ">", 10),
    ("O=C(CCCCCNC(=O)c1ccc(OCc2ccccc2)cc1)NO", "µM", ">", 10),
    ("O=C(CCCCCCC(=O)Nc1ccncc1)NO", "µM", "=", 8.9),
    ("O=C(CCCCCNC(=O)c1ccc(-c2ccccc2)cc1)NO", "µM", ">", 10),
    ("CN(C)c1ccc(C(=O)NCCCCC(=O)NO)cc1", "µM", ">", 10),
    ("O=C(CCCCCCNC(=O)c1ccccc1)NO", "µM", "=", 5.7),
    ("O=C(CCCCCNC(=O)c1ccc([N+](=O)[O-])cc1)NO", "µM", ">", 10),
    ("CN(C)c1ccc(C(=O)NCCCCCCCC(=O)NO)cc1", "µM", "=", 1.6),
    ("CN(C)c1ccc(C(=O)NCCCCCCC(=O)NO)cc1", "µM", "=", 2.1),
    ("COc1ccc(NC(=O)CCCCCCC(=O)NO)cc1", "µM", "=", 2.4),
    ("O=C(O)CCCCCCC(=O)c1ccccc1", "µM", "=", 4.1),
    ("O=C(CCCCCNC(=O)c1ccc(Cl)cc1)NO", "µM", ">", 10),
    ("O=C(CCCCCN1C(=O)c2ccccc2C1=O)NO", "µM", "=", 7.5),
    ("NNC(=O)CCCCCNC(=O)c1ccccc1", "µM", ">", 10),
]

Values compiled from ChEMBL document CHEMBL1136015.
